Reported GI50, HCT-15.
Where a SMILES comes first, the peptide text is derived from it. [ ]: non-standard residue; d: D form. The star is where a group is joined. Phe(4-NO2) = N[CH](Cc1ccc([N+](=O)[O-])cc1)C(=O)O; Cbz = O=C(OCc1ccccc1)*
RECORDED_ENDPOINT: GI50

{"COMPOUND": "COC(=O)C1C2CC3C1C3C2C(=O)OC (configuration not stated)", "TEST_SYSTEM": "HCT-15", "RECORDED_ENDPOINT": "GI50", "ENDPOINT_RESULT": "> 100 µM"}
{"COMPOUND": "CN(C)c1ccc(/C=C(\\C#N)c2nc(-c3cc4ccccc4oc3=O)cs2)cc1", "TEST_SYSTEM": "HCT-15", "RECORDED_ENDPOINT": "GI50", "ENDPOINT_RESULT": "> 50 µM"}
{"COMPOUND": "CC1=NN(C(=O)CC(=O)N(C(=O)c2ccccc2)c2ccc(Cl)cc2)C(=O)C1/N=N/c1ccc([N+](=O)[O-])cc1 (configuration not stated)", "TEST_SYSTEM": "HCT-15", "RECORDED_ENDPOINT": "GI50", "ENDPOINT_RESULT": "> 10 µM"}
{"COMPOUND": "O=C(O)/C=C\\C(=O)Nc1ccc2c(c1)C(=O)c1cc(F)ccc1-2", "TEST_SYSTEM": "HCT-15", "RECORDED_ENDPOINT": "GI50", "ENDPOINT_RESULT": "> 100 µM"}
{"COMPOUND": "CO[C@H]1C=C[C@@]23c4cc5c(cc4CO[C@]2(O)CN(C)[C@H]3C1)OCO5", "TEST_SYSTEM": "HCT-15", "RECORDED_ENDPOINT": "GI50", "ENDPOINT_RESULT": "> 100 µM"}
{"COMPOUND": "NC(=O)C(=CNC(N)=S)C(N)=O", "TEST_SYSTEM": "HCT-15", "RECORDED_ENDPOINT": "GI50", "ENDPOINT_RESULT": "> 100 µM"}
{"COMPOUND": "COc1cc(/C=N/n2c(C)n[nH]c2=O)cc(OC)c1OC", "TEST_SYSTEM": "HCT-15", "RECORDED_ENDPOINT": "GI50", "ENDPOINT_RESULT": "> 100 µM"}
{"COMPOUND": "COCCO [2-METHOXYETHANOL]", "TEST_SYSTEM": "HCT-15", "RECORDED_ENDPOINT": "GI50", "ENDPOINT_RESULT": "> 100 µM"}
{"COMPOUND": "Cc1nn(-c2ccccc2)c2nc3ccc(Cl)cc3c(-c3ccccc3)c12", "TEST_SYSTEM": "HCT-15", "RECORDED_ENDPOINT": "GI50", "ENDPOINT_RESULT": "> 100 µM"}
{"COMPOUND": "CSCSCC(CO)NC(=O)/C=C/c1c(C)nc(O)nc1O (configuration not stated)", "TEST_SYSTEM": "HCT-15", "RECORDED_ENDPOINT": "GI50", "ENDPOINT_RESULT": "> 100 µM"}
{"COMPOUND": "O=[N+]([O-])c1ccc(/N=N\\c2c(O)c(S(=O)(=O)O)cc3cc(S(=O)(=O)O)ccc23)cc1", "TEST_SYSTEM": "HCT-15", "RECORDED_ENDPOINT": "GI50", "ENDPOINT_RESULT": "> 100 µM"}
{"COMPOUND": "CCOC(=O)CCC(NC(=O)OCc1ccccc1)C(=O)NC(CCC(=O)OCC)C(=O)NC(Cc1ccc([N+](=O)[O-])cc1)C(=O)NC(CCC(=O)OCC)C(=O)NC(CCC(=O)OCC)C(=O)OCC (configuration not stated) (Cbz-E(OEt)E(OEt)[Phe(4-NO2)]E(OEt)E(OEt)-OEt; configuration not given here)", "TEST_SYSTEM": "HCT-15", "RECORDED_ENDPOINT": "GI50", "ENDPOINT_RESULT": "> 100 µM"}
